Biological target: T1, CMG2 38-218 (Homo sapiens, UniProt P58335)
T1 chain: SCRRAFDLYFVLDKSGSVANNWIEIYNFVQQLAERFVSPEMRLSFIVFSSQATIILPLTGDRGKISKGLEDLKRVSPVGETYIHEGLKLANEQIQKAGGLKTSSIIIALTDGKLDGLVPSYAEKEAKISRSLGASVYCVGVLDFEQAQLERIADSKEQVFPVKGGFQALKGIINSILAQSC
Assay: microscale thermophoresis
Square brackets hold non-standard residues; d marks the D form. Ends that are not written are not given here. Tyr(3-NO2) = N[C@@H](Cc1ccc(O)c([N+](=O)[O-])c1)C(=O)O; Phe(4-NO2) = N[C@@H](Cc1ccc([N+](=O)[O-])cc1)C(=O)O; Tyr(3,5-Br2) = N[C@@H](Cc1cc(Br)c(O)c(Br)c1)C(=O)O; Phe(4-CN) = N#Cc1ccc(C[C@H](N)C(=O)O)cc1; Phe(4-Cl) = N[C@@H](Cc1ccc(Cl)cc1)C(=O)O; Phe(4-F) = N[C@@H](Cc1ccc(F)cc1)C(=O)O; hPhe = N[C@@H](CCc1ccccc1)C(=O)O; Phg = N[C@H](C(=O)O)c1ccccc1

>  <Binder>
CLR[Tyr(3-NO2)]T [CLR(3-nitro-Y)T]

>  <Kd / µM>
112

$$$$
>  <Binder>
CLR[Phe(4-F)]T [CLR(4-fluoro-F)T]

>  <Kd / µM>
49.9

$$$$
>  <Binder>
CLR[Phe(4-CN)]T [CLR(4-cyano-F)T]

>  <Kd / µM>
61.4

$$$$
>  <Binder>
CLR[Phe(4-NO2)]T [CLR(4-nitro-F)T]

>  <Kd / µM>
36.2

$$$$
>  <Binder>
CLR[hPhe]T [CLR(homophenylalanine)T]

>  <Kd / µM>
74

$$$$
>  <Binder>
CLR[Phe(4-Cl)]T [CLR(4-Cl-F)T]

>  <Kd / µM>
14

$$$$
>  <Binder>
CLR[Phg]T [CLR(phenylglycine)T]

>  <Kd / µM>
59.6

$$$$
>  <Binder>
CLR[dF]T [CLR(D-Phe)T]

>  <Kd / µM>
31

$$$$
>  <Binder>
CLR[Tyr(3,5-Br2)]T [CLR(3,5-dibromo-Y)T]

>  <Kd / µM>
60

$$$$
